Origin of measurements: PubChem BioAssay

# Test system: Human papillomavirus type 1a E7 protein (residues 1-88)
# ASSAY_REMARKS: HPV1a E7 small-molecule binders, primary screen, biochemical, small-molecule microarray, residues 1-88, 635 nm (AID 1129)
# ASSAY_SETUP: small-molecule microarray binding, fluorescence 635 nm; higher = more signal
Returns yes (1) if the recorded composite z-score is greater than or equal to 0.5, and no (0) otherwise.

// inclusive: composite z-score at least 0.5? input: "CO[C@H]1O[C@H](CO)[C@@H](OC(=O)Nc2cccc(F)c2)[C@H](OC(=O)Nc2ccccc2)[C@H]1OC(=O)Nc1ccccc1"
yes (1)

Quick check: does "O=c1cccc(-c2ccccc2Cl)o1" have composite z-score greater than or equal to 0.5?
no (0)

Check if composite z-score >= 0.5 (inclusive). Item: "O=C1O[C@@H](c2ccccc2)[C@@H](c2ccccc2)N2[C@@H](c3ccc(OCCO)cc3)[C@]3(C(=O)Nc4ccc(C#CCCO)cc43)[C@@H](C(=O)NC[C@H](O)c3ccccc3)[C@H]12"
yes (1)

Hello, I need to know if "COc1ccc(-c2cc3c(c(Cc4ccccc4)n2)[Si](C(C)C)(C(C)C)OC3)cn1" has measured composite z-score not below 0.5. Thanks!
no (0)

hey, is composite z-score for this one >= 0.5? "CCCC(=O)N(CCc1c[nH]c2ccccc12)[C@@H]1CC(C(=O)NCCO)=C[C@H](Oc2c(I)cc(CO)cc2OC)[C@H]1O"
no (0)

Can O=C1NC(=O)C2C1C=CC(C(O)c1ccc(I)cc1)N2Nc1ccccn1 (stereo not drawn) be said to have composite z-score at or above 0.5?
no (0)

Kindly determine if composite z-score recorded for "C=CC[C@]1(C(=O)NCc2ccccc2)N=C(c2ccc(OCCCO)cc2)O[C@H]1c1ccccc1CN=[N+]=[N-]" is above or exactly 0.5.
yes (1)

Given COc1cc(OC)c(C(O)C2C=CC3C(=O)NC(=O)C3N2Nc2ccccn2)cc1Br (stereo not drawn) , state whether its composite z-score is at least 0.5.
yes (1)
